system name: GST-Rok-C97-191 (Bacillus subtilis subsp. subtilis str. …, UniProt O34857 97-191)
Sequence: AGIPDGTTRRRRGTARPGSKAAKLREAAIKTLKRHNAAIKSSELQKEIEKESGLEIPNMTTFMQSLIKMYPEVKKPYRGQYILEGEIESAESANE
protocol notes: protein binding microarray; Rok is a gene silencer of Bacillus subtilis; high values mean tight binding
protocol conditions: protein: recombinant; tags: GST (pTH5325, pDEST15-Magic modified); dsDNA, one strand shown
Over roughly 33,000 sequences, “e-score” has its median near -0.038; the highest 2% begin near 0.33. The full list was thinned out, with the highest values kept by preference.
Give measured binding signal for each item. Keep answers brief.
Give the value, in units of E-score, as a plain number.

Inquiry: State its binding signal on GST-Rok-C97-191 (Bacillus subtilis subsp. subtilis str. …, UniProt O34857 97-191): `AGTTACAT`
Reply text: 0.342

Inquiry: Please do the same for `AACCCACT` as well.
Reply text: 0.0905

Inquiry: Please do the same for `AGTCCAAT` as well.
Reply text: -0.0629

Inquiry: Please do the same for `TCCGCTCA` as well.
Reply text: -0.118

Inquiry: Please do the same for `ATTTAGGG` as well.
Reply text: -0.024

Inquiry: Please do the same for `ATCAAAAT` as well.
Reply text: 0.231

Inquiry: Please do the same for `ACAGGCGG` as well.
Reply text: -0.187

Inquiry: Please do the same for `CTGCAACA` as well.
Reply text: 0.0545

Inquiry: Please do the same for `CAATGGGC` as well.
Reply text: -0.197

Inquiry: Please do the same for `AGTCGAGC` as well.
Reply text: -0.0631

Inquiry: Please do the same for `ACGCTAAG` as well.
Reply text: 0.0377

Inquiry: Please do the same for `AATTGGTA` as well.
Reply text: 0.331

Inquiry: Please do the same for `ATGACCCA` as well.
Reply text: -0.129

Inquiry: Please do the same for `GACCGCTA` as well.
Reply text: 0.0642

Inquiry: Please do the same for `ACCGCAAG` as well.
Reply text: -0.109

Inquiry: Please do the same for `ACTACGCA` as well.
Reply text: -0.0187

Inquiry: Please do the same for `AACCGCGA` as well.
Reply text: -0.00712

Inquiry: Please do the same for `GCATCCAA` as well.
Reply text: -0.0621

Inquiry: Please do the same for `TTCAACAA` as well.
Reply text: 0.0826

Inquiry: Please do the same for `AGTACAAA` as well.
Reply text: 0.342

Inquiry: Please do the same for `AATTACAA` as well.
Reply text: 0.251

Inquiry: Please do the same for `CGCTACGA` as well.
Reply text: 0.0242

Inquiry: Please do the same for `GCCATTTA` as well.
Reply text: -0.19

Inquiry: Please do the same for `AGTTACAA` as well.
Reply text: 0.163

Inquiry: Please do the same for `AAGCTGTC` as well.
Reply text: 0.0421

Inquiry: Please do the same for `TAACCGTA` as well.
Reply text: 0.169

Inquiry: Please do the same for `GAATAATC` as well.
Reply text: -0.0939

Inquiry: Please do the same for `AACATCCT` as well.
Reply text: 0.0847

Inquiry: Please do the same for `TATGACAA` as well.
Reply text: -0.00238

Inquiry: Please do the same for `CATTGCTA` as well.
Reply text: 0.118

Inquiry: Please do the same for `CCGACAAC` as well.
Reply text: -0.076

Inquiry: Please do the same for `GCTTCACA` as well.
Reply text: -0.0519

Inquiry: Please do the same for `CAGTTGAC` as well.
Reply text: 0.0118

Inquiry: Please do the same for `GATGCATA` as well.
Reply text: 0.176

Inquiry: Please do the same for `GAGATGAA` as well.
Reply text: -0.0161

Inquiry: Please do the same for `ACTGCGCG` as well.
Reply text: -0.0406

Inquiry: Please do the same for `ACGGTTAT` as well.
Reply text: 0.165

Inquiry: Please do the same for `CATTGGTA` as well.
Reply text: 0.279

Inquiry: Please do the same for `AATATACT` as well.
Reply text: 0.367

Inquiry: Please do the same for `CGTACAAA` as well.
Reply text: 0.236

Inquiry: Please do the same for `CAGTGGTA` as well.
Reply text: 0.232

Inquiry: Please do the same for `AATGTAAG` as well.
Reply text: 0.112

Inquiry: Please do the same for `AATGTAAT` as well.
Reply text: 0.398

Inquiry: Please do the same for `TGTACAAA` as well.
Reply text: 0.355

Inquiry: Please do the same for `TAACAATA` as well.
Reply text: 0.292

Inquiry: Please do the same for `GATCCAAC` as well.
Reply text: -0.164
